# Test system: yellow nutsedge
# ASSAY EXPLANATION: Test C pre-/postemergence herbicide test
# Assay type: in vivo, Cyperus esculentus
# CONDITION SET: 62 g ai/ha; preemergence
EXPERIMENTAL READOUT: Plant response rating (0 = no effect, 100 = complete control), Nutsedge, Yellow

>>> df
                           smiles_structure  value_measured
0  CCn1nc(C(C)(C)C)cc1C(=O)Nc1cccc(C(=O)NC2CC2)c1               0
1  CCNC(=O)c1cccc(NC(=O)c2cc(C(C)(C)C)nn2CC)n1               0
2  CCOC(=O)c1cccc(NC(=O)c2cc(C(C)(C)C)nn2CC)c1               0
3  CCN1CCc2c(NC(=O)c3cc(C(C)(C)C)nn3CC)cccc2C1=O               0

Per the record, CCCCOc1cccc(NC(=O)c2cc(C(C)(C)C)nn2CC)c1 has Plant response rating (0 = no effect, 100 = complete control), Nutsedge, Yellow of 0

----------
# Tested on: morningglory
# ASSAY EXPLANATION: Test B pre-/postemergence herbicide test
# Type: in vivo, Ipomoea coccinea
# CONDITION SET: 500 g ai/ha; visual rating, 0 = no effect, 100 = complete control; preemergence
Field: Plant response rating, Morningglory. Provide a value for each of the molecules that follow.
Answers are plain numbers.

Below are 4 molecules. Give each one its Plant response rating, Morningglory.
1. CCn1nc(C(C)(C)C)cc1C(=O)Nc1cncc(C(=O)N2CC=CC2)n1
2. CCNC(=O)c1ccc(F)c(NC(=O)c2cc(C3(C)CC3)nn2CC)c1
3. C=CCN(CC=C)C(=O)c1cncc(NC(=O)c2cc(C(C)(C)C)nn2CC)c1
4. C#CCNC(=O)c1cncc(NC(=O)c2cc(C(C)(C)C)nn2CC)n1

0
60
0
0

Below are 6 molecules. Give each one its Plant response rating, Morningglory.
1. CCNC(=O)c1cncc(NC(=O)c2cc(C(C)(C)C)nn2CC)c1
2. C#CCNC(=O)c1cccc(NC(=O)c2sc(C(C)(C)C)nc2CC)c1
3. CCOC(=O)c1cccc(NC(=O)c2cc(C3(C)CC3)nn2CC)c1
4. C#CCNC(=O)c1cc(NC(=O)c2cc(C(C)(C)C)nn2CC)ccn1
5. C=CCNC(=O)c1cccc(NC(=O)c2cc(C(C)(C)C)nn2C)n1
6. CCNC(=O)c1ccc(F)c(NC(=O)c2cc(C(C)(C)C)nn2CC)n1

90
20
20
0
30
10

----------
# Test system: corn
# ASSAY EXPLANATION: Test B pre-/postemergence herbicide test
# Type: in vivo, Zea mays
# CONDITION SET: 125 g ai/ha; 0 = no effect, 100 = complete control; preemergence
Field: Corn plant response rating (0 to 100 scale). Provide a value for each of the compounds that follow.
Give bare numbers.

>>> df
                                   compound  value_measured
0  CCn1nc(C(C)(C)C)cc1C(=O)Nc1cncc(C(=O)N2CC=CC2)n1               0

Below are 7 compounds. Give each one its Corn plant response rating (0 to 100 scale).
1. CC(=O)c1cccc(NC(=O)c2sc(C(C)(C)C)nc2C)c1
2. C=CCN(CC=C)C(=O)c1cncc(NC(=O)c2cc(C(C)(C)C)nn2CC)c1
3. CC(=NO)c1cccc(NC(=O)c2cc(C(C)(C)C)n[nH]2)c1
4. CCNC(=O)c1ccc(F)c(NC(=O)c2sc(C(C)(C)C)nc2CC)c1
5. CC(=NO)c1cccc(NC(=O)c2cn(C(C)C)nc2C)c1
6. CCc1nc(C(C)(C)C)sc1C(=O)Nc1cccc(C(=O)N(C)CC)c1
7. CCc1nc(C(C)(C)C)sc1C(=O)Nc1cc(C(=O)N(C)C)ccc1F

1. 0
2. 0
3. 0
4. 0
5. 0
6. 10
7. 30

----------
Field: Lambsquarters plant response rating. Provide a value for each of the molecules that follow.
# Test system: lambsquarters
# ASSAY EXPLANATION: Test B pre-/postemergence herbicide test
# Assay type: in vivo, Chenopodium album
# CONDITION SET: 125 g ai/ha; visual rating, scale 0 (no effect) to 100 (complete control); postemergence

Take a look at these entries with their results.
In [3]: df
Out[3]:
                                   molecule  value_measured
0  CCN(CC)C(=O)c1ccc(F)c(NC(=O)C2CC(C(C)(C)C)=NN2CC)c1 (racemic) [Compound 308]              50
1  CCn1nc(C(C)(C)C)cc1C(=O)Nc1cncc(C(=O)N2CC=CC2)n1 [Compound 290]              10
2  CCc1nn(C(C)(C)C)cc1C(=O)Nc1cccc(C(=O)N(C)C)n1 [Compound 292]              30

Below are 7 molecules. Give each one its Lambsquarters plant response rating.
1. CCc1nn(C(C)(C)C)nc1C(=O)Nc1cc(C(=O)N2CC=CC2)ccc1F [Compound 363]
2. CCNC(=O)c1cccc(NC(=O)c2nn(C3CCCC3)nc2CC)c1 [Compound 356]
3. CCOC(=O)c1cccc(NC(=O)c2cc(C3(C)CC3)nn2CC)c1 [Compound 295]
4. CCc1nn(C(C)(C)CC)nc1C(=O)Nc1cc(C(=O)N2CC=CC2)ccc1F [Compound 371]
5. CCc1nn(C(C)(C)C)nc1C(=O)Nc1cccc(C(=O)N(C)C)c1 [Compound 364]
6. Cc1nn(C(C)(C)C)nc1C(=O)Nc1cc(C(=O)N(C)C)ccc1F [Compound 378]
7. CCNC(=O)c1ccc(F)c(NC(=O)c2cc(C3(C)CC3)nn2CC)c1 [Compound 300]

1: 30; 2: 10; 3: 40; 4: 40; 5: 70; 6: 40; 7: 70

Per the record, Cn1nc(C(C)(C)C)cc1C(=O)Nc1cccc(C(=O)NC2CC2)n1 [Compound 315] has Lambsquarters plant response rating of 50

----------
Field: Foxtail, Giant plant response rating. Provide a value for each of the compounds that follow.
# Tested on: giant foxtail
# ASSAY EXPLANATION: Test A pre-/postemergence herbicide test
# Type: in vivo, Setaria faberi
# CONDITION SET: Postemergence, 500 g ai/ha; 0 to 100 scale, 0 no effect, 100 complete control

                           smiles_structure                  experimental_readout  value_measured
0  CCN(C(C)=O)C(=O)c1ccc(F)c(NC(=O)c2cc(C(C)(C)C)nn2CC)c1  Foxtail, Giant plant response rating              10
1  CCNC(=O)c1ccc(F)c(NC(=O)c2nc(C(C)(C)C)nn2CC)c1  Foxtail, Giant plant response rating              40
2  CCn1nc(C(C)(C)C)cc1C(=O)Nc1cccc(OCCCF)c1  Foxtail, Giant plant response rating              20
3  CCN(C)C(=O)c1ccc(F)c(NC(=O)c2cc(C(C)(C)C)nn2CC)n1  Foxtail, Giant plant response rating               0
4  CCNC(=O)c1cccc(NC(=O)c2cc(C(C)(C)C)nn2CC)n1  Foxtail, Giant plant response rating              80
5  C#CCNC(=O)c1cccc(NC(=O)c2sc(C(C)(C)C)nc2CC)c1  Foxtail, Giant plant response rating               0

Below are 3 compounds. Give each one its Foxtail, Giant plant response rating.
1. CCOC(=O)c1cccc(NC(=O)c2sc(C(C)(C)C)nc2CC)c1
2. CCOc1cccc(NC(=O)c2cn(C(C)(C)C)nc2C)c1
3. CC(=NO)c1cccc(NC(=O)c2cc(C(C)(C)C)n[nH]2)c1

1: 25; 2: 0; 3: 0

Below are 2 compounds. Give each one its Foxtail, Giant plant response rating.
1. CCc1nc(C(C)(C)C)sc1C(=O)Nc1cccc(C(=O)NCC2CC2)c1
2. CCn1nc(C(C)(C)C)cc1C(=O)Nc1cc(OC(F)(F)F)ccc1F

[45, 20]

----------
# Tested on: velvetleaf
# ASSAY EXPLANATION: Test B pre-/postemergence herbicide test
# Type: in vivo, Abutilon theophrasti
# CONDITION SET: preemergence, 125 g ai/ha; 0 to 100 scale, 0 is no effect, 100 is complete control
EXPERIMENTAL READOUT: Plant response rating, Velvetleaf
Numbers only.

                           smiles_structure               experimental_readout  value_measured
0  CCn1nc(C(C)(C)C)cc1C(=O)Nc1cccc(OCCCF)c1  Plant response rating, Velvetleaf               0

Below are 4 compounds. Give each one its Plant response rating, Velvetleaf.
1. CCNC(=O)c1cccc(NC(=O)c2cc(C(C)(C)C)nn2CC(F)(F)F)c1
2. CCN1CCc2c(NC(=O)c3cc(C(C)(C)C)nn3CC)cccc2C1=O
3. CCn1nc(C(C)(C)C)cc1C(=O)Nc1cc(C(=O)NC(C)(C)C)ccn1
4. CCOC(=O)c1cc(NC(=O)c2cc(C(C)(C)C)nn2CC)ccc1F

80
10
70
0
